- Assay method text: cells
- Test parameters: Rattus norvegicus
- Description: Induction of rat oligodendrocyte precursor cells differentiation assessed as myelin basic protein expression by immunostaining based assay
Quantity kind: EC50 (nM)

[
  {
    "Smiles notation": "O=C1c2ccccc2NC12CCN(CC1CCOCC1)CC2",
    "Unit abbrev": "nM",
    "Quantitative result": 550
  },
  {
    "Smiles notation": "CC(C)CN1CCC2(CC1)Nc1ccc(C(C)C)cc1C2=O",
    "Unit abbrev": "nM",
    "Quantitative result": 330
  },
  {
    "Smiles notation": "FC(F)(F)c1ccc2c(c1)CC1(CCN(CC3CCOCC3)CC1)N2",
    "Unit abbrev": "nM",
    "Quantitative result": 240
  },
  {
    "Smiles notation": "CC(C)c1ccc2c(c1)C(=O)C1(CCN(CCc3ccccc3)CC1)N2",
    "Unit abbrev": "nM",
    "Quantitative result": 540
  },
  {
    "Smiles notation": "CC(C)Oc1ccc2c(c1)C(=O)C1(CCN(CC3CCOCC3)CC1)N2",
    "Unit abbrev": "nM",
    "Quantitative result": 59
  },
  {
    "Smiles notation": "CC(C)c1ccc2c(c1)C(=O)C1(CCN(CC3CCCCC3)CC1)N2",
    "Unit abbrev": "nM",
    "Quantitative result": 37
  },
  {
    "Smiles notation": "O=C1c2cc(Cl)ccc2NC12CCN(CC1CCOCC1)CC2",
    "Unit abbrev": "nM",
    "Quantitative result": 320
  },
  {
    "Smiles notation": "O=C1c2cc(C(F)(F)F)ccc2OC12CCN(CC1CCOCC1)CC2",
    "Unit abbrev": "nM",
    "Quantitative result": 480
  }
]

[a] CCCN1CCC2(CC1)Nc1ccc(C(C)C)cc1C2=O
[b] CC(C)c1ccc2c(c1)C(=O)C1(CCN(CC3CCOCC3)CC1)N2
Pick one, a or b : lowest reported EC50. Reply briefly: the label of your chosen item. b

---

- Assay method text: cells
- Test parameters: Rattus norvegicus
pEC50: −log10 of the molar value.
Quantity kind: pEC50

[
  {
    "Compound": "COC1c2cc(C(F)(F)F)ccc2NC12CCN(CC1CCOCC1)CC2 (configuration not stated)",
    "pEC50": 8.24
  },
  {
    "Compound": "OC1c2cc(C(F)(F)F)ccc2NC12CCN(CC1CCOCC1)CC2 (configuration not stated)",
    "pEC50": 6.28
  }
]

[P] COc1ccc2c(c1)C(=O)C1(CCN(CC3CCOCC3)CC1)N2
[Q] O=C1c2cc(C(F)(F)F)ccc2CC12CCN(CC1CCOCC1)CC2
[R] CC(C)c1ccc2c(c1)C(=O)C1(CCN(CC3CCCC3)CC1)N2
[S] CC(C)c1ccc2c(c1)C(=O)C1(CCN(Cc3ccccc3)CC1)N2
Hi! Can you put these in order of pEC50, lowest number first? Reply format: the labels, ordered as requested. P, S, Q, R

---

- Assay method text: Cmax in C57BL/6 mouse at 10 mg/kg, po administered as a single dose
- Type: ADME, organism-based
- Parameters: dose 10 mg/kg, route oral
- Test parameters: in vivo
Quantity kind: Cmax (µg/mL)
Record the value in µg/mL, omitting the unit from your answer.

What value of measured Cmax is listed for O=C1c2cc(C(F)(F)F)ccc2NC12CCN(CC1CCOCC1)CC2 ? 0.308

---

- Assay method text: Brain to plasma permeability coefficient, Kp of the compound in C57BL/6 mouse after 4 hrs
- Type: ADME
Quantity kind: Kp at 4 h
API note: the answer field is a bare number with no unit suffix.

What value of measured Kp at 4 h is listed for O=C1c2cc(C(F)(F)F)ccc2NC12CCN(CC1CCOCC1)CC2 ? 50.9

---

- Assay method text: cells
- Test parameters: Rattus norvegicus
pEC50: −log10 of the molar value.
Quantity kind: pEC50

[
  {
    "Smiles notation": "CC(C)(C)c1ccc2c(c1)C(=O)C1(CCN(CC3CCOCC3)CC1)N2",
    "pEC50": 8.00
  }
]

[a] CC(C)c1ccc2c(c1)C(=O)C1(CCN(CC3CCC3)CC1)N2
[b] CN1c2ccc(C(F)(F)F)cc2CC12CCN(CC1CCOCC1)CC2
[c] CN1c2ccc(C(F)(F)F)cc2C(=O)C12CCN(CC1CCOCC1)CC2
Hi! Can you put these in order of pEC50, lowest number first? Reply format: the labels, ordered as requested. b, a, c

---

- Assay method text: Brain to plasma permeability coefficient, Kp of the compound in C57BL/6 mouse after 0.5 hrs
- Format: ADME
Quantity kind: Kp at 0.5 h
API note: the answer field is a bare number with no unit suffix.

What value of measured Kp at 0.5 h is listed for O=C1c2cc(C(F)(F)F)ccc2NC12CCN(CC1CCOCC1)CC2 ? 25.5

---

- Assay method text: in vitro
- Test parameters: mouse
- Description: Metabolic stability in mouse assessed as parent compound remaining after 30 mins
Quantity kind: remaining at 0.5 h (%)
Record the value in %, omitting the unit from your answer.

What value of measured remaining at 0.5 h is listed for O=C1c2cc(C(F)(F)F)ccc2NC12CCN(CC1CCOCC1)CC2 ? 68

---

- Assay method text: Elimination half life in C57BL/6 mouse at 10 mg/kg, po administered as a single dose
- Assay type: ADME, organism-based
- Test parameters: in vivo, read-out: beta t1/2 (converted)
Quantity kind: half-life (h)
Record the value in h, omitting the unit from your answer.

What value of measured half-life is listed for O=C1c2cc(C(F)(F)F)ccc2NC12CCN(CC1CCOCC1)CC2 ? 6.4

---

- Assay method text: Volume of distribution in C57BL/6 mouse at 1 mg/kg, iv administered as a single dose
- Type: ADME, organism-based
- Test parameters: in vivo
Quantity kind: Vd (L/kg)
Record the value in L/kg, omitting the unit from your answer.

What value of measured Vd is listed for O=C1c2cc(C(F)(F)F)ccc2NC12CCN(CC1CCOCC1)CC2 ? 31.5

---

- Measured target: Cytochrome P450 3A4 (Homo sapiens)
- Sequence (P08684 whole entry): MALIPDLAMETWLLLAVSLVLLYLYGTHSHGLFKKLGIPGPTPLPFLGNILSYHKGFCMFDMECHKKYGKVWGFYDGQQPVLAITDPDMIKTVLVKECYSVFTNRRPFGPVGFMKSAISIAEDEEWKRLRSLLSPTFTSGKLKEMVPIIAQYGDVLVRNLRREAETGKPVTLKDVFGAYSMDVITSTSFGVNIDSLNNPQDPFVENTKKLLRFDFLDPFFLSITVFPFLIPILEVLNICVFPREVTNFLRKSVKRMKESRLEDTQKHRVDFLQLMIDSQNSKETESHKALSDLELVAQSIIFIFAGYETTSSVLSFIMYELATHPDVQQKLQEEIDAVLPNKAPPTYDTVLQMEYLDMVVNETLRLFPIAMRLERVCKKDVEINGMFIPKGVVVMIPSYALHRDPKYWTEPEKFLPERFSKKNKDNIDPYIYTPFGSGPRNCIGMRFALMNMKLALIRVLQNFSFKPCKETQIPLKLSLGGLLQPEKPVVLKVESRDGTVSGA
Quantity kind: IC50

Notebook: pull reported IC50 for Cytochrome P450 3A4 (Homo sapiens), entry O=C1c2cc(C(F)(F)F)ccc2NC12CCN(CC1CCOCC1)CC2 > 18 µM

---

- Measured target: UniProt P11712
- Sequence (P11712 whole entry): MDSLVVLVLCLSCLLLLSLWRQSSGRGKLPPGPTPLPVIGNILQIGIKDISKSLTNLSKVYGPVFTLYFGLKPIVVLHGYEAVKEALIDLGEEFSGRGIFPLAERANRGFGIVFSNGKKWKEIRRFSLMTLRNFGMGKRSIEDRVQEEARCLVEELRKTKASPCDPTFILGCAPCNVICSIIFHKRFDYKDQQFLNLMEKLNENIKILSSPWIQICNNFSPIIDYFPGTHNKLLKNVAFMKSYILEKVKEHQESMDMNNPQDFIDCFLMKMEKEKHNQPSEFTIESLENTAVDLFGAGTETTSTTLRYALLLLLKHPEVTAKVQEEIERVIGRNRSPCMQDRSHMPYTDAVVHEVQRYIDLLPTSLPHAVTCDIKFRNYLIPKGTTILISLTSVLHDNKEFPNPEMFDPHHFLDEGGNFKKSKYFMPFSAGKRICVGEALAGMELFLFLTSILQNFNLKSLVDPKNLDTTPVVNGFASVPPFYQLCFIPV
Quantity kind: IC50

Notebook: pull reported IC50 for UniProt P11712, entry O=C1c2cc(C(F)(F)F)ccc2NC12CCN(CC1CCOCC1)CC2 > 18 µM

Cited source for all entries: ChEMBL document CHEMBL4627279
